The following molecules are listed with their measured pIC50 values.
target: EGFR [L858R/T790M] (Homo sapiens (Human), UniProt P00533, L858R/T790M); test: Kinase inhibition assay (HTRF), EGFR [L858R/T790M]; format: biochemical; settings: HTRF Kinase TK kit, 10 min pre-incubation, 20 min reaction; read-out: EGFR(L858R/T790M) IC50
Sequence (P00533 25-1210 T790M/L858R): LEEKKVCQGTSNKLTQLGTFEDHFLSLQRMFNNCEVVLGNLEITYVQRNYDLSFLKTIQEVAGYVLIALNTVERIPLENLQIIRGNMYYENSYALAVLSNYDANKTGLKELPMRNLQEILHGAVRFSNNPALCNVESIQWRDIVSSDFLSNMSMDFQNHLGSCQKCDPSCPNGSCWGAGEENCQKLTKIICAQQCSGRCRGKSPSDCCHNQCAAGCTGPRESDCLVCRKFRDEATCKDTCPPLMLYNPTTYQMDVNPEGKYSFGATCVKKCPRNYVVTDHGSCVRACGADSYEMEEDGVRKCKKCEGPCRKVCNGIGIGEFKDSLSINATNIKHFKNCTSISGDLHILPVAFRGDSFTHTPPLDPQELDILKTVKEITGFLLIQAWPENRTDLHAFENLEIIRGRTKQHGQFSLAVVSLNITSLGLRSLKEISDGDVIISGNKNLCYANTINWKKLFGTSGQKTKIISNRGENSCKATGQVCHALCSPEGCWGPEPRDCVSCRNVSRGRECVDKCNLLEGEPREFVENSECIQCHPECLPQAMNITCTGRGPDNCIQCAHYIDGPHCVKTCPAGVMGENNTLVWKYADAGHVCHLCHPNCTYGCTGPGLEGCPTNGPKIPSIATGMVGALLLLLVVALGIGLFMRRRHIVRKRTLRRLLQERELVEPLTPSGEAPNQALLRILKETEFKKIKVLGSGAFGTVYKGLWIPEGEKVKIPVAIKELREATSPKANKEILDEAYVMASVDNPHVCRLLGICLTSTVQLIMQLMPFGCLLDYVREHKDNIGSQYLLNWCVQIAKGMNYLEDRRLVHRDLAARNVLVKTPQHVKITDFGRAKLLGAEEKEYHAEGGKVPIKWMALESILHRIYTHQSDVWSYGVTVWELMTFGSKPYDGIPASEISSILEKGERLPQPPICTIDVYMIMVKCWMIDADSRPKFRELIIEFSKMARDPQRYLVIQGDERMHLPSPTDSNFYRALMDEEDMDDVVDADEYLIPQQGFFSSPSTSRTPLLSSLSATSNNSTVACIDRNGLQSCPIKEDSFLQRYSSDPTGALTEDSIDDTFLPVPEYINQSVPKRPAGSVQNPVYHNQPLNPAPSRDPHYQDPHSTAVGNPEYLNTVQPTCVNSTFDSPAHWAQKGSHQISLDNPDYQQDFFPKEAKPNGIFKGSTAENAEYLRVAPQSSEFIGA
pIC50: −log10 of the molar value.

smi | recorded_metric | observed_measurement
C=CC(=O)Nc1cc(Nc2ncc(F)c(-c3cc(F)c4nc(C)c(C(=C)C)n4c3)n2)c(OC)cc1N(C)CCN(C)C | pIC50 | 7.30 to 9.00
C=CC(=O)Nc1cc(Nc2nccc(-c3cc(F)c4nc(C)n(C(C)C)c4c3)n2)c(OC)cc1N1CCC(OC)CC1 | pIC50 | 7.30 to 9.00
C=CC(=O)Nc1cc(Nc2nccc(-c3cc(F)c4cnn(C(C)C)c4c3)n2)c(OC)cc1N(C)CCN(C)C | pIC50 | > 9.00
COc1cc(N2CCN(C)CC2)ccc1Nc1ncc(F)c(-c2cc(F)c3nc(C)cn3c2)n1 | pIC50 | < 7.00
C=CC(=O)Nc1cc(Nc2nccc(-c3cc(F)c4nc(OCC(F)F)n(C(C)C)c4c3)n2)c(OC)cc1N(C)CCN(C)C | pIC50 | > 9.00

Now let's try a different one.
Bench note: what pIC50 did "[2H]C([2H])([2H])c1nc2ccc(-c3ccnc(Nc4cc(NC(=O)C=C)c(N(C)CCN(C)C)cc4OC)n3)cc2n1C(C)C" show? 7.30 to 9.00

----------
molecular target: WT EGFR (Homo sapiens (Human), UniProt P00533); experiment: Kinase inhibition assay (HTRF), WT EGFR; assay type: biochemical; conditions: HTRF Kinase TK kit, 10 min pre-incubation, 20 min reaction
Sequence (P00533 25-1210): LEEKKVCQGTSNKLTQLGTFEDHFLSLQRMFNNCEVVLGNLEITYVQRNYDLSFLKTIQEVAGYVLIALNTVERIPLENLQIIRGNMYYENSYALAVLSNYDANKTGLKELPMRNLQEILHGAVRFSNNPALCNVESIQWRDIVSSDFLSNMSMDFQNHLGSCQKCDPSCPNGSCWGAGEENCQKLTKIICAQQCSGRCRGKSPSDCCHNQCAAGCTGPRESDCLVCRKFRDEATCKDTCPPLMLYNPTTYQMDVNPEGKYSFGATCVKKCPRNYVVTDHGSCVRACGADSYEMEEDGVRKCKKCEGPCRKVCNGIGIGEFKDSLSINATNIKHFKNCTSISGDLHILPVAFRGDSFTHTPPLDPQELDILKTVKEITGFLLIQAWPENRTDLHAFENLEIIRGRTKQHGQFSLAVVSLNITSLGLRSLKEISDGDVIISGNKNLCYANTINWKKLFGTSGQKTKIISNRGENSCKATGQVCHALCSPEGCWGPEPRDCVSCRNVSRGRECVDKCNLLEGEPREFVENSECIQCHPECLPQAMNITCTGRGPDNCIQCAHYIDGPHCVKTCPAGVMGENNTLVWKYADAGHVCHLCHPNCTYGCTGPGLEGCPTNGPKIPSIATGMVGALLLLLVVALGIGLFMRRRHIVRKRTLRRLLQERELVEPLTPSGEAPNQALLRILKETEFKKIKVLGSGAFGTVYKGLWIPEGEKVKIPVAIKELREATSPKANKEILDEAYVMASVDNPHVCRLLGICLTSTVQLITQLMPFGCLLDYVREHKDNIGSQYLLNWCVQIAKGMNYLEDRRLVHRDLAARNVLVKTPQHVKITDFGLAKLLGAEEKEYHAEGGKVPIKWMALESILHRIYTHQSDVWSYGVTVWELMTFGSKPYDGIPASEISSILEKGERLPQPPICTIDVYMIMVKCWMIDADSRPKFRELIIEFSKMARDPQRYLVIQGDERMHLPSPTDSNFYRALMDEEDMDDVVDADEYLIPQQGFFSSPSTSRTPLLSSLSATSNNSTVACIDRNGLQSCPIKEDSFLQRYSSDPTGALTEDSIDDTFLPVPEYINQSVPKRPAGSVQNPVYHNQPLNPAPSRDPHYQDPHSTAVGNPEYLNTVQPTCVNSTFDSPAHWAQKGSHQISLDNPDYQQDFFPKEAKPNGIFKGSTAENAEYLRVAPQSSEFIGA
# IC50 per entry

Here is how some compounds turned out for IC50.
smi | tested_system | observed_measurement
C=CC(=O)Nc1cc(Nc2nccc(-c3ccc4nn(C)c(C(C)C)c4c3)n2)c(OC)cc1N(C)CCN(C)C | WT EGFR (Homo sapiens (Human), UniProt P00533) | < 1 nM
C=CC(=O)Nc1cc(Nc2ncc(F)c(-c3cc(F)c4nc(C)n(C(C)C)c4c3)n2)c(OC)cc1N(C)CCN(C)C | WT EGFR (Homo sapiens (Human), UniProt P00533) | 1 to 50 nM

Requested read-out IC50, target or system WT EGFR (Homo sapiens (Human), UniProt P00533), entry "C=CC(=O)Nc1cc(Nc2ncc(Br)c(-c3cc(F)c4nc(C)n(C(C)C)c4c3)n2)c(OC)cc1N(C)CCN(C)C" 1 to 50 nM

Hello, I am looking for reported IC50 with WT EGFR (Homo sapiens (Human), UniProt P00533) for "C=CC(=O)Nc1cc(Nc2nccc(-c3cc(F)c4nc(C)n(C(C)C)c4c3)n2)c(OCC(F)(F)F)cc1N(C)CCN(C)C" . Could you help? < 1 nM

What value of IC50 on WT EGFR (Homo sapiens (Human), UniProt P00533) does "C=CC(=O)Nc1cc(Nc2nccc(-c3cc(F)c4nc(C)n(C(C)C)c4c3)n2)c(OCC)cc1N(C)CCN(C)C" have? 1 to 50 nM

GET /values?readout=IC50&system=WT EGFR (Homo sapiens (Human), UniProt P00533)&item= "C=CC(=O)Nc1cc(Nc2nccc(-c3cc(F)c4nc5n(c4c3)CC(C)(C)O5)n2)c(OC)cc1N(C)CCN(C)C" 1 to 50 nM

Item "C=CC(=O)Nc1cc(Nc2nccc(-c3cc(F)c4nc(SC)n(C(C)C)c4c3)n2)c(OC)cc1N(C)CCN(C)C" with WT EGFR (Homo sapiens (Human), UniProt P00533) - IC50? 1 to 50 nM

Find IC50 (WT EGFR (Homo sapiens (Human), UniProt P00533)) for the entry "C=CC(=O)Nc1cc(Nc2ncc(C3CC3)c(-c3cc(F)c4nc(C)n(C(C)C)c4c3)n2)c(OC)cc1N(C)CCN(C)C" > 100 nM

Record "C=CC(=O)Nc1cc(Nc2nccc(-c3cc(F)c4nc(OC(C)C)n(C(C)C)c4c3)n2)c(OC)cc1N(C)CCN(C)C" : what is its IC50 with WT EGFR (Homo sapiens (Human), UniProt P00533)? 1 to 50 nM
